Target: M.tb PGDH (Native) (Mycobacterium tuberculosis, UniProt P9WNX3)
Sequence (P9WNX3 1-528): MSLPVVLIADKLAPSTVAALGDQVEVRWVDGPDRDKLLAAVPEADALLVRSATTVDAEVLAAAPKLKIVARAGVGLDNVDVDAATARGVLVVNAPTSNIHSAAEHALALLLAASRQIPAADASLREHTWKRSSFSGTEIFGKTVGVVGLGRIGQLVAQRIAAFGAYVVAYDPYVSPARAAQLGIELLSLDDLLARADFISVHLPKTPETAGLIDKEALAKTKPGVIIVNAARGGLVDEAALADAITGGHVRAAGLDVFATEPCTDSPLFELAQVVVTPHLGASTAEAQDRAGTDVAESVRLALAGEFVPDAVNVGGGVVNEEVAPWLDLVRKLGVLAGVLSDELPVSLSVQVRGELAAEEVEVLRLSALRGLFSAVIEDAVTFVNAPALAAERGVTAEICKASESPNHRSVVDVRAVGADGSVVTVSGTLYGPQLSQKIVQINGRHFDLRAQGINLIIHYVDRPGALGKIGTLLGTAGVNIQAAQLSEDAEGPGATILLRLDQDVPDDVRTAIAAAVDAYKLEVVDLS
METRIC_NAME: Ki (µM)
Write it as a number; the unit µM goes unstated.

Ki lookup needed for O=C(O)C(=O)COP(=O)(O)O [HPAP, hydroxypyruvic acid phosphate] , thanks.
950

----------
Target: M.tb PGDH (Mycobacterium tuberculosis, UniProt P9WNX3)
Type: binding
Conditions: read-out: Kd for NADH binding
pKd: −log10 of the molar value.
METRIC_NAME: pKd

pKd lookup needed for NC(=O)C1=CN([C@@H]2O[C@H](COP(=O)(O)OP(=O)(O)OC[C@H]3O[C@@H](n4cnc5c(N)ncnc54)[C@H](O)[C@@H]3O)[C@@H](O)[C@H]2O)C=CC1 , thanks.
4.52 to 4.82
